pKd reference
# measurementTarget: T1, hMSLN-His-Avi (human, UniProt Q13421 296-598, single biotin on the Avi tag in the biotinylated form)
# T1 construct: Monomeric; also called human MSLN-His-Avi; hMSLN-Avi-His
# T1 sequence (Q13421 other isoform, or with tags, fused parts or gaps): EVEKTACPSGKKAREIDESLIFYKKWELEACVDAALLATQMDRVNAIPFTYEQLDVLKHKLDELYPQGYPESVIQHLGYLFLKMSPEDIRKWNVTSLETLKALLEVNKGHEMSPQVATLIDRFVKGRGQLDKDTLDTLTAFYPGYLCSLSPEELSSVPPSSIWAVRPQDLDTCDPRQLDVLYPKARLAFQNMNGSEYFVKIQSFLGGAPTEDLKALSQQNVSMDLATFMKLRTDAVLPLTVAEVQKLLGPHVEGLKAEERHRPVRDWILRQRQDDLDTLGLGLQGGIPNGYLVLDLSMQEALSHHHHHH
# method: SPR, mAb2 captured on Protein G, hMSLN-His-Avi in solution
Notebook: values listed as pKd are -log10 of the concentration (mol/L).

Would you kindly share the measured pKd for FS22-172-003-AA/FS28-256-027 (bispecific antibody, human IgG1, kappa, L234A L235A, V domains shown, IgG1 mAb^2 with LALA) VH: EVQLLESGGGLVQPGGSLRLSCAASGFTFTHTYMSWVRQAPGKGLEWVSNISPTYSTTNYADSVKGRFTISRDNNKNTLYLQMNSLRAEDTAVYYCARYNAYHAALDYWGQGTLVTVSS VL: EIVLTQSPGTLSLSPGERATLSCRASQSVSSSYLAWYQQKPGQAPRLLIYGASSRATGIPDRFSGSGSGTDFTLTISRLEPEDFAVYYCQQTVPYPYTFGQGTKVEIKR ? 8.23

Continuing:
Could you share which pKd value was measured for FS22-172-003-AA/FS28-256-026 (bispecific antibody, human IgG1, kappa, L234A L235A, V domains shown, IgG1 mAb^2 with LALA) VH: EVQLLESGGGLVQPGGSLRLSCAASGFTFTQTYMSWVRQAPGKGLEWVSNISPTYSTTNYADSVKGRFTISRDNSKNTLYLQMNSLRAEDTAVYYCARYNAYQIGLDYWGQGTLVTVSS VL: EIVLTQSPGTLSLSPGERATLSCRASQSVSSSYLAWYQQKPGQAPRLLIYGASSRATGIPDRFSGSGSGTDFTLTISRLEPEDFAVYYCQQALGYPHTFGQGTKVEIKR ? 7.24

Next up: FS22-172-003-AA/FS28-256-012 (bispecific antibody, human IgG1, kappa, L234A L235A, V domains shown, IgG1 mAb^2 with LALA) VH: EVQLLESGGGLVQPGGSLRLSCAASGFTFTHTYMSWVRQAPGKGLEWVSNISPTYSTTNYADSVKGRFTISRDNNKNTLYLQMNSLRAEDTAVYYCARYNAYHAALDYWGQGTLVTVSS VL: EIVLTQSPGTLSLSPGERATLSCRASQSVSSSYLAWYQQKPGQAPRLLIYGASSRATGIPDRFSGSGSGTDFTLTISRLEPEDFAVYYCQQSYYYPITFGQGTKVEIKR 6.09

Repeat for the following binder: FS22-172-003-AA/FS28-024-052 (bispecific antibody, human IgG1, kappa, L234A L235A, V domains shown, IgG1 mAb^2 with LALA) VH: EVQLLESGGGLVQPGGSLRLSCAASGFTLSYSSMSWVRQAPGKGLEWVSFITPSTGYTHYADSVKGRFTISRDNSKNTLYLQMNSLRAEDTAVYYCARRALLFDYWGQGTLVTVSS VL: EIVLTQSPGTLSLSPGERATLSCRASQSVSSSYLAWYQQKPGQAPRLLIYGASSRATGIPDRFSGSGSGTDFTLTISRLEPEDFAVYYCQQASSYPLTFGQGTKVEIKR 7.48

# repeat for FS22-172-003-AA/FS28-256 (bispecific antibody, human IgG1, kappa, L234A L235A, V domains shown, IgG1 mAb^2 with LALA) VH: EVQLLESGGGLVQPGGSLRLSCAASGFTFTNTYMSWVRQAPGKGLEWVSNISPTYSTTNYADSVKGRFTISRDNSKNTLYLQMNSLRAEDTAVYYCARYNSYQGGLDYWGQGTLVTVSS VL: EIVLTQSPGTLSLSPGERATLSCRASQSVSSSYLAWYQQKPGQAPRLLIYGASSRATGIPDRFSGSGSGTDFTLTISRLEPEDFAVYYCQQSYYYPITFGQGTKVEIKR 5.92

Also FS22-172-003-AA/FS28-185 (bispecific antibody, human IgG1, kappa, L234A L235A, V domains shown, IgG1 mAb^2 with LALA; also called FS28-185 in CD137 mAb^2 format) VH: EVQLLESGGGLVQPGGSLRLSCAASGFTFTTSAMSWVRQAPGKGLEWVSRINPYEGETNYADSVKGRFTISRDNSKNTLYLQMNSLRAEDTAVYYCARGWSIATYYKSAMDYWGQGTLVTVSS VL: EIVLTQSPGTLSLSPGERATLSCRASQSVSSSYLAWYQQKPGQAPRLLIYGASSRATGIPDRFSGSGSGTDFTLTISRLEPEDFAVYYCQQSSYSAPVTFGQGTKVEIKR , if possible. 6.61

Also check FS22-172-003-AA/FS28-256-272 (bispecific antibody, human IgG1, kappa, L234A L235A, V domains shown, IgG1 mAb^2 with LALA) VH: EVQLLESGGGLVQPGGSLRLSCAASGFTFTHTYMSWVRQAPGKGLEWVSHISPTYSTTNYADSVKGRFTISRDNNKNTLYLQMNSLRAEDTAVYYCARYNAYHAALDYWGQGTLVTVSS VL: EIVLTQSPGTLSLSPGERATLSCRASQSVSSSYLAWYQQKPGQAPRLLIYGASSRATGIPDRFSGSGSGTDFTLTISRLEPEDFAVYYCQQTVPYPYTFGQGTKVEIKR 8.12

Now consider FS22-172-003-AA/FS28-024-060 (bispecific antibody, human IgG1, kappa, L234A L235A, V domains shown, IgG1 mAb^2 with LALA) VH: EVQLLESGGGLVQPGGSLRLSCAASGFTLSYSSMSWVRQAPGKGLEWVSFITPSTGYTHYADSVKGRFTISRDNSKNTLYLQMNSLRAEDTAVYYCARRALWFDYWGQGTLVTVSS VL: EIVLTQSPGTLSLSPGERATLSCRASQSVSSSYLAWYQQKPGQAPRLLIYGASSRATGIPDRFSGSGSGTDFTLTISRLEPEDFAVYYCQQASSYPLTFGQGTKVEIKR and answer again. 8.37

Data credit: patent US12319739
